# TESTED ON: ABCB1 (Homo sapiens)
# Construct: full length, wild type; cell assays in SW620/Ad300 and HEK/ABCB1
# Sequence (P08183 whole entry): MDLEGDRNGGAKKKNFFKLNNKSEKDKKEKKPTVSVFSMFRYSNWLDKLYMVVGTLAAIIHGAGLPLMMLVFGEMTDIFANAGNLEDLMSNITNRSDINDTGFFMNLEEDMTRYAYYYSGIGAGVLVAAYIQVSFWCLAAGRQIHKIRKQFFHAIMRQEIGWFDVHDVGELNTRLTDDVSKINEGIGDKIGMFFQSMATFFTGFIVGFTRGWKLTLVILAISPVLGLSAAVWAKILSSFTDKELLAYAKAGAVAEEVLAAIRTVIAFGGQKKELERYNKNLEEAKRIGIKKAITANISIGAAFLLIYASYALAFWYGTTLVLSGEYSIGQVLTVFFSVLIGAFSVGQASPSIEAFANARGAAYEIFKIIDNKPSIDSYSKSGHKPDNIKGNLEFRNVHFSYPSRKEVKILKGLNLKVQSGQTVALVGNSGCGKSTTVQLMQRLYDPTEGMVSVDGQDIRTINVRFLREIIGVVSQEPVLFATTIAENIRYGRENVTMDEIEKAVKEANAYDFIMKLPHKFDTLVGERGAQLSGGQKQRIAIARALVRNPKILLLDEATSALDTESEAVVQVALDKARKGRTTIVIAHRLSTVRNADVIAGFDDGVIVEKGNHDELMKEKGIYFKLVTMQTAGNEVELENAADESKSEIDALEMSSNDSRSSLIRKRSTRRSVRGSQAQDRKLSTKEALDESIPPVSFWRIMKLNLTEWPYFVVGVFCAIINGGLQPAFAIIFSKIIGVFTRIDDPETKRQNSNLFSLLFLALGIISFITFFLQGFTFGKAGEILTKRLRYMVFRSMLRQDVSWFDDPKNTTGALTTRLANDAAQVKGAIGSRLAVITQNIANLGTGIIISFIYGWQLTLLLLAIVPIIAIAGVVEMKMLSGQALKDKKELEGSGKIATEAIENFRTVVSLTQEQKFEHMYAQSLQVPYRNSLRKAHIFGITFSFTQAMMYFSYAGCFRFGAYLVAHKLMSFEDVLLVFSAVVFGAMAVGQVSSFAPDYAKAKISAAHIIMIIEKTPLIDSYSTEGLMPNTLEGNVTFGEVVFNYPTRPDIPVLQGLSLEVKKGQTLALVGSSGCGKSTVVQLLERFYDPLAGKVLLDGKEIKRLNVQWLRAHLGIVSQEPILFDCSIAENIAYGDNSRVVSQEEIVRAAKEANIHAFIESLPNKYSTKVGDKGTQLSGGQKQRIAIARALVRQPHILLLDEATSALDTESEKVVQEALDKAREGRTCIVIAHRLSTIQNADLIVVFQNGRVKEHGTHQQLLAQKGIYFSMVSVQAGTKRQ
# ASSAY PROCEDURE: stimulation of vanadate-sensitive ATPase activity in ABCB1 membranes
# TEST SETTINGS: read-out: concentration required to obtain 50% of maximal stimulation
QUANTITY MEASURED: pEC50
Give bare numbers, as −log10 of the molar value.

Reported pEC50 for Cc1ccc(NC(=O)c2ccc(CN3CC[C@H](N(C)C)C3)c(C(F)(F)F)c2)cc1Nc1nccc(-c2cncnc2)n1 was 6.19
